Record form. Attribute: melting point. Fill in for each entry.

Give the reported melting point for this molecule. "CC1(C)CC[C@]2(C(=O)OCc3cn(-c4ccc(Cl)c(Cl)c4)nn3)[C@H](O)C[C@]3(C)C(=CC[C@@H]4[C@@]5(C)CC[C@H](O)[C@@](C)(C=O)[C@@H]5CC[C@]43C)[C@@H]2C1"
205 to 206 °C

Note down melting point recorded for "CC1(C)CC[C@]2(C(=O)OCCn3ncn(-c4ccc(Cl)cc4)c3=O)[C@H](O)C[C@]3(C)C(=CC[C@@H]4[C@@]5(C)CC[C@H](O)[C@@](C)(C=O)[C@@H]5CC[C@]43C)[C@@H]2C1"
166 to 168 °C

Retrieve melting point measured for "CC1(C)CC[C@]2(C(=O)OCc3nnc(-c4ccc(F)cc4)o3)[C@H](O)C[C@]3(C)C(=CC[C@@H]4[C@@]5(C)CC[C@H](O)[C@@](C)(C=O)[C@@H]5CC[C@]43C)[C@@H]2C1" and print it.
122 to 124 °C

Answer with reported melting point of "CC1(C)CC[C@]2(C(=O)OCCn3ncn(-c4ccc(Cl)c(Cl)c4)c3=O)[C@H](O)C[C@]3(C)C(=CC[C@@H]4[C@@]5(C)CC[C@H](O)[C@@](C)(C=O)[C@@H]5CC[C@]43C)[C@@H]2C1"
187 to 189 °C

Provide only the value of recorded melting point for "COc1ccc(-n2cc(COC(=O)[C@]34CCC(C)(C)C[C@H]3C3=CC[C@@H]5[C@@]6(C)CC[C@H](O)[C@@](C)(C=O)[C@@H]6CC[C@@]5(C)[C@]3(C)C[C@H]4O)nn2)cc1"
192 to 193 °C

Determine from records and report melting point for "Cc1ccc(-n2cc(COC(=O)[C@]34CCC(C)(C)C[C@H]3C3=CC[C@@H]5[C@@]6(C)CC[C@H](O)[C@@](C)(C=O)[C@@H]6CC[C@@]5(C)[C@]3(C)C[C@H]4O)nn2)cc1"
204 to 206 °C

// Input: "CC1(C)CC[C@]2(C(=O)OCc3cn(-c4ccc([N+](=O)[O-])cc4)nn3)[C@H](O)C[C@]3(C)C(=CC[C@@H]4[C@@]5(C)CC[C@H](O)[C@@](C)(C=O)[C@@H]5CC[C@]43C)[C@@H]2C1" . Output its melting point only.
193 to 194 °C

---

- System: HCT116 (human colorectal cancer cell line)
- test: MTT anti-proliferative assay, HCT116
- Type: cell-based
- test_conditions: Homo sapiens, HCT-116, 48 h incubation, means ± SD, n = 3
measured_property: IC50

Input "CC1(C)CC[C@]2(C(=O)OCCn3ncn(-c4ccc(F)cc4)c3=O)[C@H](O)C[C@]3(C)C(=CC[C@@H]4[C@@]5(C)CC[C@H](O)[C@@](C)(C=O)[C@@H]5CC[C@]43C)[C@@H]2C1" , output reported IC50.
> 10 µM

Assign IC50 to the following record: "CC1(C)CC[C@]2(C(=O)OCCn3nnnc3-c3ccccc3)[C@H](O)C[C@]3(C)C(=CC[C@@H]4[C@@]5(C)CC[C@H](O)[C@@](C)(C=O)[C@@H]5CC[C@]43C)[C@@H]2C1"
2.46 µM

Read off the recorded IC50 for "CC1(C)CC[C@]2(C(=O)OCc3cn(-c4ccc([N+](=O)[O-])cc4)nn3)[C@H](O)C[C@]3(C)C(=CC[C@@H]4[C@@]5(C)CC[C@H](O)[C@@](C)(C=O)[C@@H]5CC[C@]43C)[C@@H]2C1"
> 10 µM

---

- Tested on: HCT116 (human colorectal cancer cell line)
- test: MTT anti-proliferative assay, HCT116
- Format: cell-based
- test_conditions: Homo sapiens, HCT-116, 48 h incubation, means ± SD, n = 3
- From the text: The anti-proliferative activities against five human cancer cell lines, including HCT116 (human colorectal cancer cell line), MCF-7 (human breast cancer cell line), SW620 (human colorectal cancer cell line), BEL7402 (human hepatocellular carcinoma cell line), and HepG2 (human hepatocellular carcinoma cell line) were established for all the target compounds using the MTT assay. […]
measured_property: pIC50
// scale note: pIC50 = -log10(conc_M); give the bare number

Give the measured pIC50 for "COc1ccc(-c2nnc(COC(=O)[C@]34CCC(C)(C)C[C@H]3C3=CC[C@@H]5[C@@]6(C)CC[C@H](O)[C@@](C)(C=O)[C@@H]6CC[C@@]5(C)[C@]3(C)C[C@H]4O)o2)cc1"
5.44

Quickly give me recorded pIC50 for "CC1(C)CC[C@]2(C(=O)OCc3nnc(-c4ccc(Cl)cc4)o3)[C@H](O)C[C@]3(C)C(=CC[C@@H]4[C@@]5(C)CC[C@H](O)[C@@](C)(C=O)[C@@H]5CC[C@]43C)[C@@H]2C1"
5.30

Tell me its pIC50 given "COc1cc(-c2nnc(COC(=O)[C@]34CCC(C)(C)C[C@H]3C3=CC[C@@H]5[C@@]6(C)CC[C@H](O)[C@@](C)(C=O)[C@@H]6CC[C@@]5(C)[C@]3(C)C[C@H]4O)o2)cc(OC)c1OC" as the entry.
5.42

Identify measured pIC50 corresponding to "COc1cc(-n2cnn(CCOC(=O)[C@]34CCC(C)(C)C[C@H]3C3=CC[C@@H]5[C@@]6(C)CC[C@H](O)[C@@](C)(C=O)[C@@H]6CC[C@@]5(C)[C@]3(C)C[C@H]4O)c2=O)cc(OC)c1OC"
5.25

---

Consider the following compounds; for each one, report its melting point.

Give melting point for the following compound: CC1(C)CC[C@]2(C(=O)OCCn3ncn(-c4ccccc4)c3=O)[C@H](O)C[C@]3(C)C(=CC[C@@H]4[C@@]5(C)CC[C@H](O)[C@@](C)(C=O)[C@@H]5CC[C@]43C)[C@@H]2C1 [Compound C1]
174 to 176 °C

Provide measured melting point value, entry: CC1(C)CC[C@]2(C(=O)OCc3cc(-c4ccccc4)no3)[C@H](O)C[C@]3(C)C(=CC[C@@H]4[C@@]5(C)CC[C@H](O)[C@@](C)(C=O)[C@@H]5CC[C@]43C)[C@@H]2C1 [D]
176 to 178 °C

Indicate its recorded melting point; the compound in question is CC1(C)CC[C@]2(C(=O)OCc3nnc(-c4ccc([N+](=O)[O-])cc4)o3)[C@H](O)C[C@]3(C)C(=CC[C@@H]4[C@@]5(C)CC[C@H](O)[C@@](C)(C=O)[C@@H]5CC[C@]43C)[C@@H]2C1 [Compound B6]
140 to 142 °C

For CC1(C)CC[C@]2(C(=O)OCc3nnc(-c4ccc(Cl)cc4)o3)[C@H](O)C[C@]3(C)C(=CC[C@@H]4[C@@]5(C)CC[C@H](O)[C@@](C)(C=O)[C@@H]5CC[C@]43C)[C@@H]2C1 [Compound B3] , write its melting point.
132 to 134 °C

Given the compound COc1ccc(-n2cnn(CCOC(=O)[C@]34CCC(C)(C)C[C@H]3C3=CC[C@@H]5[C@@]6(C)CC[C@H](O)[C@@](C)(C=O)[C@@H]6CC[C@@]5(C)[C@]3(C)C[C@H]4O)c2=O)cc1 [Compound C5] , write its reported melting point.
186 to 188 °C

---

- Test system: HCT116 (human colorectal cancer cell line)
- test: MTT anti-proliferative assay, HCT116
- Type: cell-based
- test_conditions: Homo sapiens, HCT-116, 48 h incubation, means ± SD, n = 3
pIC50: −log10 of the molar value.
measured_property: pIC50

Quick one: give measured pIC50 for "CC1(C)CC[C@]2(C(=O)OCc3cn(-c4ccccc4)nn3)[C@H](O)C[C@]3(C)C(=CC[C@@H]4[C@@]5(C)CC[C@H](O)[C@@](C)(C=O)[C@@H]5CC[C@]43C)[C@@H]2C1"
5.44

Please report pIC50 for the following compound: "COc1cc(-n2cc(COC(=O)[C@]34CCC(C)(C)C[C@H]3C3=CC[C@@H]5[C@@]6(C)CC[C@H](O)[C@@](C)(C=O)[C@@H]6CC[C@@]5(C)[C@]3(C)C[C@H]4O)nn2)cc(OC)c1OC"
< 5.00

Could you please provide reported pIC50 for "CC1(C)CC[C@]2(C(=O)OCc3cc(-c4ccccc4)no3)[C@H](O)C[C@]3(C)C(=CC[C@@H]4[C@@]5(C)CC[C@H](O)[C@@](C)(C=O)[C@@H]5CC[C@]43C)[C@@H]2C1" ? Thanks!
< 5.00

Write down pIC50 measured for item "CC1(C)CC[C@]2(C(=O)O)[C@H](O)C[C@]3(C)C(=CC[C@@H]4[C@@]5(C)CC[C@H](O)[C@@](C)(C=O)[C@@H]5CC[C@]43C)[C@@H]2C1"
< 5.00

Input "COc1ccc(-n2cc(COC(=O)[C@]34CCC(C)(C)C[C@H]3C3=CC[C@@H]5[C@@]6(C)CC[C@H](O)[C@@](C)(C=O)[C@@H]6CC[C@@]5(C)[C@]3(C)C[C@H]4O)nn2)cc1" , output reported pIC50.
< 5.00
